Taken from PubChem BioAssay AID1159580.

Task for the reader: assign each of the following compounds its reported normalized growth.
- PROTOCOL: chemical genetic growth profiling, strain panel (AID 1159580);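 note: tested at 20 µM; growth read once vehicle control cultures reached saturation at 30 °C; 1 = growth at the plate median or of vehicle wells; lower values mean less growth of the strain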
- PARTICULARS: S. cerevisiae deletion strains, growth OD, locus YKL009W, strain mrt4, hits give low values
Among all 5,500 compounds or so, about 2,000 (36%) were called active. Another 18% or so got no clear call; they are omitted. The list shows a part of the results.
Answers are plain numbers.

Here's what some known entries look like.
1) NC(=O)c1cc[n+](CC2=C(C(=O)O)N3C(=O)C(NC(=O)C(c4ccccc4)S(=O)(=O)[O-])C3SC2)cc1 (stereo unspecified); 0.991
2) Nc1c(Br)cc(Br)cc1CNC1CCC(O)CC1 (stereo unspecified); 0.985
3) CCOc1ccc2c(c1)C(C)=CC(C)(C)N2; 0.988

Look up normalized growth for the entries below, preserving their order.
1. CN(Cc1cc(Br)cc(Br)c1N)C1CCCCC1
2. CN1CCc2cccc3c2C1Cc1ccc(O)c(O)c1-3 (stereo unspecified)

Response given:
1: 1.01; 2: 1.01

Documented normalized growth of `NC(=O)N/N=C\c1ccc([N+](=O)[O-])o1` : 0.979
